Target: T1, recombinant human IL-23 (p19/p40) (human, UniProt Q9NPF7 20-189; P29460 23-328)
T1 construct: Bought heterodimer (R&D Systems or eBioscience); biotinylated in the alpha-screens; also called hIL-23
T1 sequence (looked up) 1: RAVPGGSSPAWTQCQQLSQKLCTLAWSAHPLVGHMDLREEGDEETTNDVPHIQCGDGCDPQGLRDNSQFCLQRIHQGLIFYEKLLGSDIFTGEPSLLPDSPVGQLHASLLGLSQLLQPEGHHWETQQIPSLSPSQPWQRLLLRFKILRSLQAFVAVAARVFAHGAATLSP
T1 sequence (looked up) 2: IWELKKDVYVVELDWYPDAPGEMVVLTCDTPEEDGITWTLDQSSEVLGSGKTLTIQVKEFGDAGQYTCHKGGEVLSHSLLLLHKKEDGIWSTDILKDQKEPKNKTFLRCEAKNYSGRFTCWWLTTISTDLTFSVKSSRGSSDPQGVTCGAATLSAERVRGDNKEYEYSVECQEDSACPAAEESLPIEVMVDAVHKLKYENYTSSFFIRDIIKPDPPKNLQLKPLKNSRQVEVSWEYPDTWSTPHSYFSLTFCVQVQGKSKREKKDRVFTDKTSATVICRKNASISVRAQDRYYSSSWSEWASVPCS
Assay: SPR Biacore, hIL-23 on chip
One threshold, 0.0003 s⁻¹, splits the recorded koff values: lower ones are rule met, equal or higher ones are rule not met.

- P23IL3G10 (VHH, p40+ Nanobody; c-myc, His6-tagged) VHH: EVQLVESGGGVVQAGESLRLSCAASGYNVKDYEMGWFRQAPGMEREFAAAISWRGSSTYYADSVKGRFTISRDNAKNTVYLQMSSLKPEDTAVYYCAAGRLYPSSRSRDYDYWGQGTQVTVSS: rule not met

Input: Say whether its koff is strictly beneath 0.0003 s⁻¹. Entry: P23IL-23H3 (VHH, p40+ Nanobody) VHH: EVQLVESGGGLVQAGDSLRLSCAASGRSFSNDAMGWFRQAPGKERSFVAAINWSGELTGYAGSVKGRFTISRDGVENMVFLQMNSLVPEDTGVYYCAAVEGRDYYRGAQYYDYWGQGTQVTVSS
Output: rule not met

Input: Can you handle P23IL-23E3 (VHH, p40+ Nanobody) VHH: EVQLVESGGELVQAGGSLRLSCAASGSIVSISAMAWYRQAPGKQRERVATITRGGTPDYADSAKDRFTISRDNAKNTVSLQMNNLKPEDTAVYYCKAALRTPTHDYNYYDYWGQGTQVTVSS next?
Output: rule met

Input: Can you handle P23IL 84G12 (VHH, also called P23ILp40-PMP84G12) VHH: EVQLVESGGRLVQAGGSLRLSCAASGRTFDSNPMGWFRQAPGKKREFVAIISGNGGITNYANSVKGRFTISRDNAKNTIYLQMNSLKPEDTAVYYCAASGLYGSGSVYDLMYDYWGQGTQVTVSS next?
Output: rule met

Input: Can you handle P23IL-22D7 (VHH, p40+ Nanobody) VHH: EVQLVESGGGLVQAGGSLRLSCASSGRTFSIYARGWFRQAPGKEREFVAAIRSGLTTYSDSVKGRFTISRDIAKNTVFLQMNSLKSEDTAVYYCAAAVNYFTDFTDYSKRDSYDYWGQGTQVTVSS next?
Output: rule met
